Test: Solubility in water, buffers and bio-relevant media (37° C., 24 h shaking, HPLC)
Type: physicochemical
Details: Water, 37° C., 24 h
PARAMETER_MEASURED: Solubility
Report the figure along with its unit, number first.

Worked cases, Solubility given:
{"columns": ["COMPOUND", "Solubility"],
 "data": [
  ["CCc1nc2ccccn2c1C(=O)c1cc(Br)c(O)c(C#N)c1 [Form 5D]", "0.8 µg/mL"],
  ["CCc1nc2ccccn2c1C(=O)c1cc(Br)c(O)c(C#N)c1 [Form 1]", "9.4 µg/mL"],
  ["CCc1nc2ccccn2c1C(=O)c1cc(Br)c(O)c(C#N)c1 [Form 8]", "0.5 µg/mL"],
  ["CCc1nc2ccccn2c1C(=O)c1cc(Br)c(O)c(C#N)c1 [Form 2]", "20.0 µg/mL"],
  ["CCc1nc2ccccn2c1C(=O)c1cc(Br)c(O)c(C#N)c1 [Form 11]", "1914.5 µg/mL"]
]}

Shift focus to the following entry.
// query # get_value(readout='Solubility', item= CCc1nc2ccccn2c1C(=O)c1cc(Br)c(O)c(C#N)c1 [Form 6] )
// result 0.4 µg/mL

These data points were gathered from patent US20250368639A1.
